System Name: P2Y12 receptor (Homo sapiens)
Sequence (Q9H244 whole entry): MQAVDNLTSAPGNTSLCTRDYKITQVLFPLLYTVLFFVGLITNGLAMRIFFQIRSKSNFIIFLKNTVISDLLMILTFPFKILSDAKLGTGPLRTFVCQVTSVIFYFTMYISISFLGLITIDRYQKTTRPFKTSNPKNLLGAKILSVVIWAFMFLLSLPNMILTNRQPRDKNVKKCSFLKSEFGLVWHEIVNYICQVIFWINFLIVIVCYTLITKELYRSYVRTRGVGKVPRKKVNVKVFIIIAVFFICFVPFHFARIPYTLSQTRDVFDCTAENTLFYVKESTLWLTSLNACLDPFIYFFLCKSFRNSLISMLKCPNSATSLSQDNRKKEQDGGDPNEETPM
Assay Text: Whole cell receptor binding assay for 2-MeS[3H]-ADP
Test Parameters: whole HEK 293 cells transfected with P2Y12; 2-MeS[3H]-ADP 3 nM; 30 min at 37° C.; read-out: Inhibition of Receptor Binding IC50
Description: A whole cell-binding assay for 2-MeS [^3H]-ADP (Custom synthesized by Amersham BioScience, Piscataway, N.J.) to the P2Y12 receptor was performed. A P2Y12 cDNA containing hygromycin resistant gene was transfected in HEK 293 cells. A stable cell line was obtained by a cloning selection method. […] On the day of the assay, the cells were harvested and resuspended in 0.25% BSA-DMEM and adjusted to a cell concentration of 1.6×10^6/ml. […] The radioactivity was measured using a TOPCOUNT beta counter (Packard).
Provide the recorded IC50 for the entries that follow.
Answers are plain numbers, in µM.

[
  {
    "Molecule": "CCCSc1nc(N[C@@H]2C[C@H]2c2ccccc2)c2nnn(C3[C@@H](O)[C@@H](O)C(OCCO)[C@@H](O)[C@H]3O)c2n1 (mixture of isomers) [Cpd 12]",
    "Experimental Endpoint": "IC50",
    "Measured Value": 2.2
  },
  {
    "Molecule": "CCCCNc1nc(SCCC)nc2c1nnn2[C@@H]1C=C[C@H](O)[C@@H](O)[C@H]1O [Cpd 1]",
    "Experimental Endpoint": "IC50",
    "Measured Value": 9.03
  },
  {
    "Molecule": "CCCSc1nc(N[C@@H]2C[C@H]2c2ccccc2)c2nnn([C@@H]3C=C[C@H](OCC(=O)O)[C@@H](O)[C@H]3O)c2n1 (mixture of isomers) [Cpd 11]",
    "Experimental Endpoint": "IC50",
    "Measured Value": 1.49
  }
]

List the reported IC50 of each molecule below.
1. CCCSc1nc(N[C@@H]2C[C@H]2c2ccccc2)c2nnn([C@@H]3CC[C@H](O)[C@@H](O)[C@H]3O)c2n1 (mixture of isomers) [Cpd 14]
2. CCCSc1nc(NC[C@@H]2CCCO2)c2nnn([C@@H]3C=C[C@H](O)[C@@H](O)[C@H]3O)c2n1 [Cpd 3]
3. CCCSc1nc(N[C@@H]2C[C@H]2c2ccccc2)c2nnn([C@@H]3CC[C@H](OCCO)[C@@H](O)[C@H]3O)c2n1 (mixture of isomers) [Cpd 15]
4. CCCSc1nc(N[C@@H]2C[C@H]2c2ccccc2)c2nnn([C@@H]3C=C[C@H](OCCO)[C@@H](O)[C@H]3O)c2n1 (mixture of isomers) [Cpd 13]
5. CCCSc1nc(N[C@@H]2C[C@H]2c2ccccc2)c2nnn([C@H]3[C@H](O)[C@H](O)[C@@H](O)[C@H](O)[C@@H]3O)c2n1 (racemic) [Cpd 9]

Result:
1: 1.35; 2: 4.75; 3: 6.6; 4: 8.56; 5: 5.04

List the reported IC50 of each molecule below.
1. CCCSc1nc(NCCc2cccs2)c2nnn([C@@H]3C=C[C@H](O)[C@@H](O)[C@H]3O)c2n1 [Cpd 7]
2. CCCSc1nc(N[C@@H]2C[C@H]2c2ccccc2)c2nnn([C@@H]3C=C[C@H](O)[C@@H](O)[C@H]3O)c2n1 (mixture of isomers) [Cpd 5]

Result:
1. 2.27
2. 2.1
